Reported MIC50 values are given for each entry in this list.
Test system: Morganella morganii
Assay: Antibacterial activity against Morganella morganii obtained from complicated skin and skin structure infections by agar dilution method
Format: functional
Answer format: numeric, µg/mL implied, no suffix.

Examples with answers:
C[C@H]1COc2c(N3CCN(C)CC3)c(F)cc3c(=O)c(C(=O)O)cn1c23.C[C@H]1COc2c(N3CCN(C)CC3)c(F)cc3c(=O)c(C(=O)O)cn1c23.O [LEVOFLOXACIN]; 1
Nc1nc(/C(=N/O)C(=O)N[C@@H]2C(=O)N3C(C(=O)O)=C(/C=C4\CCN([C@@H]5CCNC5)C4=O)CS[C@H]23)ns1 [CEFTOBIPROLE]; 0.12
CO/N=C(\C(=O)N[C@@H]1C(=O)N2C(C(=O)[O-])=C(C[N+]3(C)CCCC3)CS[C@H]12)c1csc(N)n1; 0.03

Would you kindly look at the next entry?
# return MIC50 of NCC[C@H](O)C(=O)N[C@@H]1C[C@H](N)[C@@H](O[C@H]2O[C@H](CN)[C@@H](O)[C@H](O)[C@H]2O)[C@H](O)[C@H]1O[C@H]1O[C@H](CO)[C@@H](O)[C@H](N)[C@H]1O [AMIKACIN] (system: Morganella morganii)
2

----------
Test system: Staphylococcus intermedius
Test: Antibacterial activity against Staphylococcus intermedius obtained from complicated skin and skin structure infections by agar dilution method
Assay type: functional
quantity kind: MIC50 (µg/mL)
Report the figure in µg/mL without appending any unit label.

Cc1onc(-c2ccccc2)c1C(=O)N[C@@H]1C(=O)N2[C@@H]1SC(C)(C)[C@@H]2C(=O)O [OXACILLIN]; 0.25

Report measured MIC50; entry is CN[C@H](CC(C)C)C(=O)N[C@H]1C(=O)N[C@@H](CC(N)=O)C(=O)N[C@H]2C(=O)N[C@H]3C(=O)N[C@H](C(=O)N[C@H](C(=O)O)c4cc(O)cc(O)c4-c4cc3ccc4O)[C@H](O)c3ccc(c(Cl)c3)Oc3cc2cc(c3O[C@@H]2O[C@H](CO)[C@@H](O)[C@H](O)[C@H]2O[C@H]2C[C@](C)(N)[C@H](O)[C@H](C)O2)Oc2ccc(cc2Cl)[C@H]1O [VANCOMYCIN]
1

----------
Examples of compounds with documented MIC90 follow.
System: Staphylococcus cohnii
Test: Antibacterial activity against coagulase-negative Staphylococcus cohnii obtained from complicated skin and skin structure infections by agar dilution method
Assay type: functional
Provide the reading as a plain figure in µg/mL.

Nc1nc(/C(=N/O)C(=O)N[C@@H]2C(=O)N3C(C(=O)O)=C(/C=C4\CCN([C@@H]5CCNC5)C4=O)CS[C@H]23)ns1 [CEFTOBIPROLE]; 1
CC(=O)NC[C@H]1CN(c2ccc(N3CCOCC3)c(F)c2)C(=O)O1 [LINEZOLID]; 1

Proceeding to the next compound to report its MIC90.
Look up MIC90 of CN[C@H](CC(C)C)C(=O)N[C@H]1C(=O)N[C@@H](CC(N)=O)C(=O)N[C@H]2C(=O)N[C@H]3C(=O)N[C@H](C(=O)N[C@H](C(=O)O)c4cc(O)cc(O)c4-c4cc3ccc4O)[C@H](O)c3ccc(c(Cl)c3)Oc3cc2cc(c3O[C@@H]2O[C@H](CO)[C@@H](O)[C@H](O)[C@H]2O[C@H]2C[C@](C)(N)[C@H](O)[C@H](C)O2)Oc2ccc(cc2Cl)[C@H]1O [VANCOMYCIN] and report it.
2
